# Tested on: MS2 coat protein
# Test protocol: apparent KD of MS2 coat protein; higher = weaker reporter binding
# Applied conditions: Eterna round: R107; input ligand: arginine 13.2 mM
Kindly return t if reported apparent KD of MS2 coat protein is no lower than 30 nM; return f if it is lower.

- Sequence string: "CCUAUGCAGUCGGCCGCCACUGAACAUGAGGAUCACCCAUGUUAUUAUAAAUAUGGUCCUAAAAUCAGGACCGGGACUGUAUAGG [Ex Tryptophan B 8]"
  Tested on: "MS2 coat protein"
  Answer label: "t"
- Sequence string: "GGCGACAUGAGGAUCACCCAUGUGACACCUCGAGGACCGGUACGGCCGCCACUCGUAACCUGCACUAUAGCUACCACGAUUAGCC [theeternabot_sameState_MS2_Trp_A_44]"
  Tested on: "MS2 coat protein"
  Answer label: "t"
- Sequence string: "AGAUUCGACACGGCCGCCACUUGUGGUGGAUUAUCCUAUGUCGAACAUGAGGAUCACCCAUGUACAAGGACCGGGUGUUGAGUCU [XTryp B #21]"
  Tested on: "MS2 coat protein"
  Answer label: "t"
- Sequence string: "ACAUUUAACUGAAGGAGCGUGAUAUACAUGAGGAUCACCCAUGUGUCUUUCAUGAAUAAUUCACAGGUAGGUCGCAGACUAAUGA [JR_ExcArginiB_Sub008]"
  Tested on: "MS2 coat protein"
  Answer label: "t"
- Sequence string: "UCUUUUUUCUUUUCUUCUUUCGGUUCUUUUCGAGGACCGGUACGGCCGCCACUCGAAACAUGAGGAUCACCCAUGUUUUGGUUUU [Trypto a]"
  Tested on: "MS2 coat protein"
  Answer label: "f"
- Sequence string: "AUGCACGGGCUAAUCUGCGAUUGGCACGAUACCAGAGAUCAAGACCUCCCUUGGCAGCGUGUCACAUGAGGAUCACCCAUGUGGA [theeternabot_exclusion_MS2_Theo_A_40]"
  Tested on: "MS2 coat protein"
  Answer label: "t"
- Sequence string: "ACACAUGACAGAAGGAGCGGAAUGAACACACAUGAGGAUCACCCAUGUUUUUUUUGUGUUUUCCAGGUAGGUCGCUGACAUGAGG [#20 Same State - Arginine B]"
  Tested on: "MS2 coat protein"
  Answer label: "f"
- Sequence string: "CUGCCAUGCAGGGAUACCAGUGCGUUCAGAACAUGAGGAUCACCCAUGUCGUCUGCCGAUCACCCUUGGCAGCUCUGCAUGGCAG [#05 Same State - Theophylline B]"
  Tested on: "MS2 coat protein"
  Answer label: "f"

API: the following record is the query input.
Please indicate if the recorded apparent KD of MS2 coat protein for AUAAAUAAUAAAUAAGAUAAAAUGGGUGAACGAGGACCGGUACGGCCGCCACUCGGACAUGAGGAUCACCCAUGUCCAUGUGAAA [#22 Exclusion Tryptophan A] meets or exceeds 30 nM.
f
